Listed compounds paired with reported melting point
measuredEndpoint: melting point

>>> valuereported("COc1ccc(COCc2nccn2CCO)cc1")
"96 to 98 °C"
>>> valuereported("O=C(O)CS(=O)(=O)c1cc(NS(=O)(=O)c2cccs2)c2ccccc2c1O")
"190 to 192 °C"
>>> valuereported("O=C(O)CCCCCCCNS(=O)(=O)c1ccccc1")
"82 to 84 °C"
>>> valuereported("CC(C)(CO)CNC(=O)c1ccc2c(c1)C(=NNc1ccc(S(N)(=O)=O)cc1)C(=O)N2")
"> 230 °C"
>>> valuereported("CCOc1ccccc1N1CCN(CCC2OCCc3cc(C(N)=O)ccc32)CC1 (centres undefined)")
"208 to 210 °C"
>>> valuereported("CC(=O)N[C@@H](C)C(=O)NCCc1ccc(O)c(O)c1")
"200 to 202 °C"
>>> valuereported("Cc1ccnc(C(=O)n2cc(CC(=O)O)c3cc(C)ccc32)c1")
"220 to 226 °C"
>>> valuereported("COCOc1cccc(CN(C)c2cnc(-c3ccccc3)c(-c3ccccc3)n2)c1")
"109 to 111 °C"
>>> valuereported("CCCCOCCOc1ccc(-c2cc(/C=C/C(=O)O)c3c(c2)CCCN3C)cc1")
"128 to 129 °C"
>>> valuereported("COc1ccc(C(=O)Nc2ccccc2)cc1NC(=S)Nc1cccc(C)c1")
"168 to 171 °C"
>>> valuereported("Cc1c(C(=O)Nc2ccc(N3CCC(N4CCCCC4)CC3)c(C#N)c2)cnn1-c1ccc(Cl)cc1")
"252 °C"
>>> valuereported("Cn1cc(C(=O)NCc2ccc(Cl)cc2)c(=O)c2cc(CN3CCCSCC3)ccc21")
"166 to 167 °C"
>>> valuereported("Cc1cc([N+](=O)[O-])ccc1NC(=O)C1=C(O)N(C)S(=O)(=O)c2sccc21")
"189 to 191 °C"
>>> valuereported("CCNc1nc2ccc(CCc3cn4c(n3)CC(C)CC4)cc2o1 (centres undefined)")
"159 to 161 °C"
>>> valuereported("CONCc1cc(-n2c(=O)cc(C(F)(F)F)n(C)c2=O)ccc1Cl")
"83 to 85 °C"
>>> valuereported("CC1CCc2cc(C3=NNC(=O)C4CC34)ccc2NC1=O (centres undefined)")
"305 to 307 °C"
>>> valuereported("CSc1nc(-c2cc(C(=O)N(C)C)ccc2C)c2c(n1)N(c1c(F)cccc1F)C(=O)NC2")
"144 to 147 °C"
>>> valuereported("CCc1nc2c(C)cc(C)nc2n1Cc1ccc2nc(-c3ccccc3NS(=O)(=O)C(F)(F)F)ccc2c1")
"252 °C"
>>> valuereported("CCCCCCCNC(=O)Nc1ccc(N(C)C)cc1C(=O)NCC1CCN(C(c2ccc(Cl)cc2)c2ccc(Cl)cc2)CC1")
"216 °C"

* * *

measuredEndpoint: melting point

>>> valuereported("c1coc(-c2nnc(-n3ccnc3)c3ccccc23)c1")
"151 to 152 °C"
>>> valuereported("CCCNC(=O)c1cnc2ccccn2c1=O")
"120 to 122 °C"
>>> valuereported("O=C(O)c1cc2ccc3[nH]ccc3c2[nH]1")
"248 to 250 °C"
>>> valuereported("Nc1cc(=O)nc(Nc2ccccc2)n1-c1ccc(Br)cc1")
"211 to 213 °C"
>>> valuereported("O=C(Nc1ccccc1)c1ccc2c(c1)N(C1CC1)C=NS2(=O)=O")
"278 to 281 °C"
>>> valuereported("COC(CCCNC(=O)C=CC(=O)NCCCC(OC)OC)OC")
"170 to 172 °C"
>>> valuereported("CC(C)c1cccc(C(C)C)c1NC(=O)N(Cc1ccc(N(C)C)cc1)c1ccc(C(C)(C)C)cc1")
"154 to 155 °C"
>>> valuereported("COc1ccc2cc([C@H](C)C(=O)OCCNC(=O)OC(C)(C)C)ccc2c1")
"82 to 84 °C"
>>> valuereported("CN(C)c1cc(CC(C#N)=CNc2ccccc2)cc(N(C)C)c1N(C)C")
"179 to 181 °C"
>>> valuereported("CCN1C(=O)C(=O)N(c2ccc(Cl)cc2C)C1=S")
"161 to 162 °C"

* * *

Listed compounds paired with reported melting point
measuredEndpoint: melting point

>>> valuereported("Cc1ccc(N=c2scc(-c3ccc(Cl)c(S(=O)(=O)N(C)C)c3)n2C)c(C)c1")
"152 to 154 °C"
>>> valuereported("CCCCCCCCCCC=NNC(=N)N")
"101 °C"
>>> valuereported("COc1cc(COc2nn(Cc3ccccc3)cc2CC(=O)O)ccc1OCc1nc(-c2ccccc2)oc1C")
"99 to 100 °C"
>>> valuereported("CNCCc1cccc(N2C(=O)N(c3ccc(Cl)cc3Cl)Cc3cnc(Nc4ccccc4)nc32)c1")
"120 to 122 °C"
>>> valuereported("COc1c(N)cc(C)cc1N")
"67 to 69 °C"
>>> valuereported("CC(C)(C)C(O)C(=Cn1ccnc1)Oc1ccc(F)cc1 (stereo unspecified)")
"112 to 113 °C"
>>> valuereported("CCOC(=O)c1cn(-c2cccnc2)nc1Cl")
"90 to 93 °C"
>>> valuereported("O=CN1CCC(Oc2c(F)c(F)c(F)c(F)c2F)(c2ccccc2)CC1")
"118 to 119 °C"
>>> valuereported("COc1ccc(OC)n2nc(N)nc12")
"223 to 234 °C"
>>> valuereported("OC(=S)c1cc(C(F)(F)F)c(Cl)cc1Cl")
"112 to 114 °C"
>>> valuereported("COc1ccc2c(c1)C(CCCN1C(=O)c3ccccc3C1=O)=CCO2")
"78 to 80 °C"
>>> valuereported("CCCOc1c(OC)cc([C@H]2CC[C@H](c3cc(OC)c(OC)c(OC)c3)O2)cc1S(C)(=O)=O (relative stereo)")
"95 to 96 °C"
>>> valuereported("CCCCCCCCCCCCCCCCCCOc1cc(C(=O)OC)cc([N+](=O)[O-])c1")
"64 to 66 °C"
>>> valuereported("COc1ccc(I)cc1C(=O)O")
"150 to 152 °C"
>>> valuereported("CCc1nc(COc2ccc(NC(=O)/C=C/c3cnn(C)c3-c3ccc(F)cc3)cc2)cs1")
"98 to 99 °C"
>>> valuereported("CC1(C)CCC(C)(C)c2cc(-c3nc4ccc(C(=O)O)cc4s3)ccc21")
"292 to 293 °C"
>>> valuereported("COC(=O)c1ccc(Oc2ccccc2C=O)c([N+](=O)[O-])c1")
"109 to 110 °C"
>>> valuereported("CC(C)c1nc(COC(N)=O)n(C)c1Sc1cc(Cl)cc(Cl)c1")
"146 to 148 °C"
>>> valuereported("CC1(C)CC(=C(c2ccc(O)cc2)c2ccc(C#CCO)cc2)CC(C)(C)C1")
"141 to 142 °C"
>>> valuereported("N=C(N)c1ccc(C(=O)N2CCCC2CC(=O)NCCC(=O)O)cc1 (stereo unspecified)")
"> 250 °C"
>>> valuereported("CNC(=O)C(=C/c1ccccc1)/C(=C\\c1cc(OC)c(OC)c(OC)c1)C(=O)OC")
"155 to 157 °C"

* * *

Listed compounds paired with reported melting point
measuredEndpoint: melting point

>>> valuereported("O=c1c(Cl)nc2ccc(C(F)(F)F)cc2n1OCc1ccccc1")
"148 to 150 °C"
>>> valuereported("O=C(O)c1cc([N+](=O)[O-])ccc1OC(F)(F)F")
"134 to 135 °C"
>>> valuereported("CC(=O)N[C@@H](C(=O)Oc1ccccc1)C(C)(C)SN=O")
"120 °C"
>>> valuereported("COC(=O)c1[nH]c(C)c(Cc2ccccc2)c1N")
"143 to 144 °C"
>>> valuereported("O=C(Nc1nccs1)c1c(C(F)(F)F)nc2cc(C(F)(F)F)ccc2c1O")
"270 °C"
>>> valuereported("CCCc1nc(SC(F)F)c(C(=O)O)n1Cc1ccc(-c2ccccc2S(=O)(=O)NC(=O)NCc2ccccc2)cc1")
"150 °C"
>>> valuereported("COc1cc(C#N)ccc1C(Br)C(Br)C(=O)c1ccc(C#N)cc1 (stereo not given)")
"163 to 165 °C"
>>> valuereported("CC(=Cc1ccc(Oc2ccc(C)nc2)cc1)C(=O)O")
"211 to 214 °C"
>>> valuereported("CCOc1ccc(-c2nc(=O)c3ccccc3s2)cn1")
"152 to 156 °C"
>>> valuereported("CC(C)(C)OC(=O)[C@@H]1CN(Cc2ccccc2)C(=O)N1")
"96 to 98 °C"
>>> valuereported("CCOC(=O)c1c(Cl)c2cccnc2[nH]c1=O")
"172 °C"
>>> valuereported("CCCCc1nn(-c2cc([N+](=O)[O-])ccc2Br)c(=O)n1Cc1ccc(-c2ccccc2S(=O)(=O)NC(C)(C)C)cc1")
"126 to 128 °C"
>>> valuereported("COC(=O)CCNc1ccccc1CNC(=O)C1Cc2ccccc2N1S(=O)(=O)c1ccc(I)cc1 (stereo not given)")
"67 to 75 °C"
>>> valuereported("COc1ccc(-c2cc3nccnc3[nH]2)cc1")
"244 to 246 °C"
>>> valuereported("O=C(O)Cc1onc(O)c1Br")
"167 °C"
>>> valuereported("CC(C)C(=O)N[C@H]1CC[C@H](CCN2CCN(c3nccc4c3CCO4)CC2)CC1")
"219 °C"
>>> valuereported("FC(F)(F)Oc1ccc(Nc2nc(-c3ccccc3)cc(N3CCOCC3)n2)cc1")
"260 to 262 °C"
>>> valuereported("O=C(CCn1cnc2c(=O)[nH]cnc21)NCCCN1CCOCC1")
"145 to 148 °C"
>>> valuereported("COc1cc2c(c3c1OC(C)(C)C3)C(c1ccnc(-n3c(=O)ccc4ccccc43)c1)=NC(C)(C)C2")
"190 to 191 °C"
>>> valuereported("CCOCc1nc2c(N)nc3ccccc3c2n1CCN1C(C)=NOC1(C)C")
"204 to 205 °C"
>>> valuereported("Cc1c2c(c3ccccc3c1O)OCC2c1ccc(C(C)C)cc1 (stereo not given)")
"94 to 96 °C"
>>> valuereported("CN1CCC2=C(C=CCC2)C(N)C1=O (stereo not given)")
"69 to 81 °C"
>>> valuereported("O=C(O)c1[nH]c(=O)c2ccc(Cl)cc2c1-c1ccccc1")
"> 300 °C"
>>> valuereported("O=C(Nc1ccc(-n2nc(C(F)(F)F)cc2C(F)(F)F)cc1)c1ccccc1")
"177 to 178 °C"
>>> valuereported("COc1cc(COc2nn(-c3ccccc3)cc2C(C[N+](=O)[O-])C[N+](=O)[O-])ccc1OCc1nc(-c2ccco2)oc1C")
"126 to 127 °C"
>>> valuereported("CN1C(=O)Cc2cc(C3=NNC(=O)C4CCC34)ccc21 (stereo not given)")
"256 to 259 °C"
>>> valuereported("Cc1nc2cc(NC(=O)Nc3cccc(C(F)(F)F)c3)ccc2o1")
"184 to 186 °C"
>>> valuereported("O=C(CCC#Cc1ccccn1)Nc1ccc(F)cc1")
"190 °C"
>>> valuereported("CN(C)C(=O)/C=C/c1ccc(C(=O)c2c(-c3ccc(O)cc3)sc3cc(O)ccc23)cc1")
"208 to 211 °C"
>>> valuereported("CC1NC2(c3ccccc3)c3ccccc3C(=O)N2C1C (stereo not given)")
"162 to 164 °C"
>>> valuereported("COc1cc2c(cc1OS(=O)(=O)C(F)(F)F)[nH]c1cc(-c3ccccc3Cl)c3c(c12)C(=O)NC3=O")
"248 to 252 °C"
>>> valuereported("CCOC(=O)c1ccc(-n2ccnc2C)cc1")
"72 to 73 °C"
>>> valuereported("Clc1ccc(Cc2ccc(-c3ccccc3)cc2)cc1")
"96 °C"
>>> valuereported("CCN(CC)CCC1CCCCN1C(=O)N1c2ccccc2C(=O)Nc2cccnc21 (stereo not given)")
"100 °C"
>>> valuereported("N#CCNc1cn(-c2cccnc2)nc1Cl")
"141 to 143 °C"
>>> valuereported("COc1cc(C=CC(=O)C=Cc2cc(OC)c(OC)c(OC)c2)cc(OC)c1OC")
"45 to 47 °C"
>>> valuereported("Clc1ccc(OCC2CCCC(OC(CBr)c3ccc(Cl)cc3Cl)O2)c(Cl)c1 (stereo not given)")
"104 to 105 °C"
>>> valuereported("Cc1[nH]c(=S)n(Nc2cccc(Cl)c2)c1-c1cccc(Br)c1")
"196 °C"
>>> valuereported("CN1CCN(c2c(F)cc3c(=O)c(C(=O)O)cn4c3c2N(C)CC4)CC1")
"266 to 269 °C"
>>> valuereported("CCc1ccc(Nc2c(C#N)cnc3cc(OC)c(OC)cc23)cc1")
"248 to 250 °C"
